# studyTarget: D2 (Rattus norvegicus (Rat))
# Sequence (P61169 whole entry): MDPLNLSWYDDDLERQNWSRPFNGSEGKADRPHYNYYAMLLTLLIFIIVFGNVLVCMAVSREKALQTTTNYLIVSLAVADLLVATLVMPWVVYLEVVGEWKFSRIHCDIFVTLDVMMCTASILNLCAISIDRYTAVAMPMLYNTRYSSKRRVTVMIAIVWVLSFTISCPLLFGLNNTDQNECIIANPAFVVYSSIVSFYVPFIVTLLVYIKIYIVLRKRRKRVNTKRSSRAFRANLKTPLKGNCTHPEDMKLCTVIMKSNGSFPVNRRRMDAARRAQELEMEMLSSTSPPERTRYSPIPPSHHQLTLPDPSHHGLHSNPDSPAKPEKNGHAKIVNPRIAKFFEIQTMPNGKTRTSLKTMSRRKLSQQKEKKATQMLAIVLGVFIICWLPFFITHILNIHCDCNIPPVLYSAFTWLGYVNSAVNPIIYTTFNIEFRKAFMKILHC
# test: D2 receptor binding assay (3H-Spiperone)
# conditionSet: read-out: Ki (nM) D2; rat striatum membrane, 3H-Spiperone
Quick list: Ki per entry.
Your answer is read as nM, so omit the unit and give the number.

Look over these answered cases.
>  <compound>
CN1CCc2ccc(OCCCN3CCC(C(=O)c4ccc(F)cc4)CC3)cc2C1=O [Compound 25]

>  <studyTarget>
D2 (Rattus norvegicus (Rat))

>  <Ki / nM>
32.8

$$$$
>  <compound>
CN1CCc2ccc(OCCCCN3CCN(c4cccc(C(F)(F)F)c4)CC3)cc2C1=O [Compound 3]

>  <studyTarget>
D2 (Rattus norvegicus (Rat))

>  <Ki / nM>
17.2

$$$$
>  <compound>
Cc1cc(OCCCN2CCC(c3noc4cc(F)ccc34)CC2)cc2c1CCN(C)C2=O [Compound 8]

>  <studyTarget>
D2 (Rattus norvegicus (Rat))

>  <Ki / nM>
8.7

$$$$

Input: GET /values?readout=Ki&item= CN1COc2ccc(OCCCN3CCC(c4noc5cc(F)ccc45)CC3)cc2C1=O [Compound 11]
Output: 13.9

Input: Can you look up the measured Ki of Cn1c(=O)c2cc(OCCCN3CCN(c4cccc5sccc45)CC3)ccc2n(C)c1=O [D, reference compound] for me?
Output: 25.5

Input: Fill in: Ki of CN1CCc2ccc(OCCCN3CCN(c4ccccc4F)CC3)cc2C1=O [Compound 20] is ___
Output: 54.8

Input: Endpoint output: Ki of CN1CCc2ccc(OCCCN3CCN(c4nsc5ccccc45)CC3)cc2C1=O [Compound 14] . Value?
Output: 6.9
